I'd be grateful if you could share measured IC50 for these entries.
tested on: SiHa; assay: Antiproliferative activity against human SiHa cell line; assay type: functional, cell-based

Use the examples below as a reference point.
O=c1oc2c3c4c(cc2cc1[N+](=O)[O-])CCCN4CCC3 = > 70 µM
CCN(CC)c1ccc2c(C#N)c(-c3nc4ccccc4s3)c(=O)oc2c1 = > 70 µM

Please look at the items below and tell me IC50 for each one, in order.
1. O=Cc1cc2c3c(c1O)CCCN3CCC2
2. CCN(CC)c1ccc2cc(C(C)=O)c(=O)oc2c1

1. > 70 µM
2. > 70 µM

----------
test system: SiHa; assay: Antiproliferative activity against human SiHa cell line; assay type: functional, cell-based
I'd be grateful if you could share measured IC50 for these entries.
One number for each entry, in µM.

Use the examples below as a reference point.
O=c1oc2c3c4c(cc2cc1-c1nc2ccccc2[nH]1)CCCN4CCC3 = 14.6
CCN(CC)c1ccc2cc(-c3nc4ccccc4[nH]3)c(=O)oc2c1 = 62.1

Let us examine a further case.
Give its IC50 value. Item: CC(=O)O[C@H]1C(=O)[C@@]2(C)[C@H]([C@H](OC(=O)c3ccccc3)[C@]3(O)C[C@H](OC(=O)[C@H](O)[C@@H](NC(=O)c4ccccc4)c4ccccc4)C(C)=C1C3(C)C)[C@]1(OC(C)=O)CO[C@@H]1C[C@@H]2O 3.5
